Test system: UACC-62 melanoma
Assay: NCI-60 one-dose screen, 48 h (100 = growth as untreated, 0 = no growth, -100 = all killed)
Conditions: 10 µM
Compounds without any hit were thinned out: in the full panel of roughly 83,000, 20% have a hit.
endpoint.label: growth (%)

>>> value_observed("COC(=O)C[C@](O)(CCCC(C)C)C(=O)O[C@H]1C(OC)=C[C@@]23CCCN2CCc2cc4c(cc2[C@@H]13)OCO4")
0.442
>>> value_observed("O=C(/C=C/c1ccc(Cl)cc1)c1nc2ccccc2n1Cc1ccc(F)cc1")
23.5
>>> value_observed("COc1cc2cc(C(=O)N3C[C@@H](CCl)c4c3cc(OC(=O)N3CCN(C)[C@@H]5CSSC[C@@H]53)c3ccccc43)[nH]c2c(OC)c1OC")
-91.4
>>> value_observed("CC1=C2C(=C[C@@](C)(COP(=O)(Oc3ccccc3)Oc3ccccc3)[C@@H]2O)C(=O)[C@@](C)(O)C12CC2")
-87.7
>>> value_observed("CC[C@]12C=CCN3CC[C@@]4(c5ccc(OC)cc5N(C)[C@H]4[C@@](O)(C(=O)OC)[C@@H]1OC(=O)CCC[P+](c1ccc(F)cc1)(c1ccc(F)cc1)c1ccc(F)cc1)[C@@H]32")
-59.5
>>> value_observed("O=C(/C=C/c1ccc(Cl)cc1Cl)c1nc2ccccc2n1Cc1ccc(Br)cc1")
60.7

====

Each record here notes measured growth.
Tested on: MDA-MB-468 breast
Assay: NCI-60 one-dose screen, 48 h (100 = growth as untreated, 0 = no growth, -100 = all killed)
Conditions: 10 µM unless noted
The panel holds about 83,000 compounds, 20% with a hit somewhere; the sample as a whole holds those more often.
endpoint.label: growth (%)

>>> value_observed("CC(=O)OCc1cc[c]([Hg][Cl])o1")
21
>>> value_observed("Cc1cc(NC(=O)NCc2ccc(N3C(N)=NC(N)=NC3(C)C)cc2)ccc1S(=O)(=O)F")
63.3
>>> value_observed("CCOC(=S)S[C@H]1C[C@@H]2[C@H](CC[C@]3(C)C(=O)CC[C@@H]23)[C@@]2(C)CCC(=O)C=C12")
101
>>> value_observed("CC12CCC(=O)C=C1CCC1C2CCC2(C)C(C(=O)COC(=O)Cc3ccc(N(CCCl)CCCl)cc3)CCC12 (configuration not stated)")
64.1
>>> value_observed("C=CC[PH+](c1ccccc1)c1ccccc1.C=CC[PH+](c1ccccc1)c1ccccc1.[Cl][Pt][Cl]")
-20.5
>>> value_observed("CC1([N+](=O)[O-])COP(=O)(Nc2ccc(F)cc2)OC1 (configuration not stated)")
110
>>> value_observed("O=C(NC(Cl)=C(Cl)Cl)P(=O)(c1ccccc1)c1ccccc1")
101
>>> value_observed("Cc1cc(NC(=O)/C=C/c2ccc([N+](=O)[O-])cc2)ccc1S(=O)(=O)F")
114
>>> value_observed("Nc1ccc(Cl)cc1")
97
>>> value_observed("COc1ccc(S(=O)(=O)Nc2c(/C=C\\c3cc(OC)c(OC)c(OC)c3)ccc(OC)c2O)cc1OC")
14.1
>>> value_observed("NC1CC2CCCCC2CC1(O)c1ccccc1 (configuration not stated)")
98.2
>>> value_observed("COS(=O)(=O)c1ccccc1")
114
>>> value_observed("CCCCCCCCCCCCCCCCCCOc1ccccc1COP(=O)(O)OOCC[N+](C)(C)C")
-40.1
>>> value_observed("O=C(c1ccccc1O)c1[nH]c(Cl)c(Cl)c1-n1c(C(=O)c2ccccc2O)cc(Cl)c1Cl")
-13.8
>>> value_observed("O=C([O][Hg][CH2]C1COCC([CH2][Hg][O]C(=O)c2ccccc2)O1)c1ccccc1 (configuration not stated)")
22.7
>>> value_observed("O=C(CC1(O)C(=O)N(Cc2ccccc2)c2ccc(Br)cc21)c1ccc(C(=O)NCC2CCC3(CC2)OOC2(CCCCC2)OO3)cc1 (configuration not stated)")
27.9
>>> value_observed("COc1cc[c]([Hg][Cl])cc1")
-62.8
>>> value_observed("O=C(O)c1cc([N+](=O)[O-])cc([N+](=O)[O-])c1")
103
>>> value_observed("O=C(Cc1ccccc1)c1ccccc1")
106
>>> value_observed("N#CCc1ccc(CC#N)cc1")
100
>>> value_observed("NC(=O)c1cc([N+](=O)[O-])c(Cl)c([N+](=O)[O-])c1Cl")
-84.9
>>> value_observed("CC(=O)Oc1ccc(Cl)cc1")
93.6

====

Tested on: ACHN renal
Experiment: NCI-60 one-dose screen, 48 h
Settings: 10 µM
Method: Growth inhibition of the ACHN human tumor cell line is measured as a screen for anti-cancer activity. Cells are grown in 96 well plates and exposed to the test compound for 48 hours. Compounds are tested at a single concentration, which is 10^-5 M for most compounds. The reported endpoint is percent growth (GI% or GIPRCNT), where numbers from 0 - 100% represent growth inhibition, and numbers from -100% - 0 represent cell death. For example, a value of 40 represents 60% growth inhibition. […]
This is part of a sample that, as a whole, favours compounds with a hit. Of some 83,000 tested, about 20% had one in any assay. The source made the active and inactive calls. How the source made its calls: active means growth percent below 10; inactive means the rest.
Outcomes: class 1 for active, class 0 for inactive

>>> class("N#C[Se]CC(=O)Nc1cccc(C(F)(F)F)c1")
"class 1"
>>> class("COCCOCCOCCOc1ccc(-n2cc(CCCN(CCNc3ccnc4cc(Cl)ccc34)C(=O)CCC(=O)O[C@@H]3O[C@@H]4OC5(C)CC[C@H]6[C@H](C)CC[C@@H]([C@H]3C)[C@@]46OO5)nn2)cc1")
"class 0"
>>> class("CC[C@]12C=CCN3CC[C@@]4(c5ccc(OC)cc5N(C)[C@H]4[C@@](O)(C(=O)OC)[C@@H]1OC(=O)CCCC[P+](c1ccc(C)cc1)(c1ccc(C)cc1)c1ccc(C)cc1)[C@@H]32")
"class 1"
>>> class("CN(C)CCc1cn(C2CCC2)c2cccc(O)c12")
"class 0"
>>> class("O=C(NC([Se])=NC1CCCCC1)c1ccccc1")
"class 0"
>>> class("COc1cc2cc(C(=O)N3C[C@@H](CCl)c4c3cc(OC(=O)N3CCN(C)[C@@H]5CSSC[C@H]53)c3ccccc43)[nH]c2c(OC)c1OC")
"class 1"
>>> class("CC[C@]12C=CCN3CC[C@@]4(c5ccc(OC)cc5N(C)[C@H]4[C@@](O)(C(=O)OC)[C@@H]1OC(=O)CCCC[P+](C1CCCCC1)(C1CCCCC1)C1CCCCC1)[C@@H]32")
"class 0"
>>> class("O=C(/C=C/c1ccc(Cl)cc1)c1nc2ccccc2n1Cc1ccc(F)cc1")
"class 0"
>>> class("C[C@H]1[C@H](OC(=O)CCC(=O)N(CCCc2cn(-c3ccc(C#N)cc3)nn2)CCNc2ccnc3cc(Cl)ccc23)O[C@@H]2OC3(C)CC[C@H]4[C@H](C)CC[C@@H]1[C@@]24OO3")
"class 0"
>>> class("C[C@H]1[C@@H](Oc2ccc(-c3cn(-c4ccnc5cc(Cl)ccc45)nn3)cc2)O[C@@H]2OC3(C)CC[C@H]4[C@H](C)CC[C@@H]1[C@@]24OO3")
"class 0"
>>> class("CC(C)C[C@H](NC(=O)CNC(=O)C[C@H]1O[C@@H]2OC3(C)CC[C@H]4[C@H](C)CC[C@@H]([C@H]1C)[C@@]24OO3)B(O)O")
"class 1"
>>> class("O=C(/C=C/c1ccc(Cl)cc1Cl)c1nc2ccccc2n1Cc1ccc(Br)cc1")
"class 0"
>>> class("C=CC[Se]C(=O)c1cncc(C(=O)[Se]CC=C)c1")
"class 1"
>>> class("O=C(/C=C/c1ccc(F)cc1)c1nc2ccccc2n1Cc1ccc(Br)cc1")
"class 1"
>>> class("CC1=C(COCCOC(=O)c2ccc(S(=O)(=O)F)cc2)C2=C(C)C3(CC3)[C@@](C)(O)C(=O)C2=C1")
"class 1"
>>> class("CCOC(=O)C1=C(Nc2ccccc2)C(=O)OC12C(=O)Nc1ccccc12 (stereo not given)")
"class 0"
>>> class("O=C(/C=C/c1cccc(Br)c1)c1nc2ccccc2n1Cc1ccc(Br)cc1")
"class 1"
>>> class("C[C@H]1[C@H](OC(=O)CCC(=O)Nc2cnccn2)O[C@@H]2OC3(C)CC[C@H]4[C@H](C)CC[C@@H]1[C@@]24OO3")
"class 0"
>>> class("O=C(NC([Se])=NC1CCCCC1)c1ccc2c(c1)OCO2")
"class 0"
>>> class("COCCOCCOCCOc1ccc(-n2cc(-c3ccc(O[C@H]4O[C@@H]5OC6(C)CC[C@H]7[C@H](C)CC[C@@H]([C@H]4C)[C@@]57OO6)cc3)nn2)cc1")
"class 0"
>>> class("CC(C)N=C([Se])NC(=O)c1cccs1")
"class 0"
>>> class("O=C(/C=C/c1ccc(Cl)cc1)c1nc2ccccc2n1Cc1ccc(Br)cc1")
"class 0"
>>> class("COC(=O)C[C@](O)(CCC(C)C)C(=O)O[C@@H]1C(OC)=C[C@]23CCCN2CCc2cc4c(cc2[C@H]13)OCO4")
"class 1"
>>> class("COc1cc(OC)c(S(=O)(=O)N(CCCl)CCCl)cc1C(=O)/C=C/c1ccc(C)cc1")
"class 0"
>>> class("O=C(/C=C/c1cccc(Br)c1)c1nc2ccccc2n1Cc1ccc(F)cc1")
"class 0"
>>> class("CC12OOC(C)(OO1)C2CCC(=O)OCCNc1ccnc2cc(Cl)ccc12 (stereo not given)")
"class 1"
>>> class("O=C(/C=C/c1ccco1)c1nc2ccccc2n1Cc1ccc(F)cc1")
"class 0"
>>> class("O=C(/C=C/c1ccccc1)c1nc2ccccc2n1Cc1ccc(Br)cc1")
"class 1"
>>> class("COc1cc(OC)c(S(=O)(=O)N(CCCl)CCCl)cc1C(=O)/C=C/c1cc(OC)c(OC)c(OC)c1")
"class 1"
>>> class("CC(=O)Oc1ccccc1C(=O)[Se]C(=NC(C)C)NC(C)C")
"class 1"
>>> class("COC(=O)C[C@](O)(CCCC(C)C)C(=O)O[C@H]1C(OC)=C[C@@]23CCCN2CCc2cc4c(cc2[C@@H]13)OCO4")
"class 1"
>>> class("O=C(/C=C/c1ccco1)c1nc2ccccc2n1Cc1ccc(Br)cc1")
"class 0"
>>> class("CC12CCC3(CCC(=O)NCCCNc4ccnc5cc(Cl)ccc45)[C@@](C)(OO[C@]3(C)O1)O2")
"class 1"
>>> class("COC(=O)CCn1c(-c2ccc(-n3cc(-c4ccc(O[C@H]5O[C@@H]6OC7(C)CC[C@H]8[C@H](C)CC[C@@H]([C@H]5C)[C@@]68OO7)cc4)nn3)cc2)nc2ccccc21")
"class 1"
>>> class("CCC[Se]C(=O)c1ccc(C(=O)[Se]CCC)s1")
"class 1"
